# target-under-test: T1, recombinant human soluble gpNMB (recombinant human gpNMB-FLAG-His) (human, UniProt Q14956 23-498)
# T1 sequence: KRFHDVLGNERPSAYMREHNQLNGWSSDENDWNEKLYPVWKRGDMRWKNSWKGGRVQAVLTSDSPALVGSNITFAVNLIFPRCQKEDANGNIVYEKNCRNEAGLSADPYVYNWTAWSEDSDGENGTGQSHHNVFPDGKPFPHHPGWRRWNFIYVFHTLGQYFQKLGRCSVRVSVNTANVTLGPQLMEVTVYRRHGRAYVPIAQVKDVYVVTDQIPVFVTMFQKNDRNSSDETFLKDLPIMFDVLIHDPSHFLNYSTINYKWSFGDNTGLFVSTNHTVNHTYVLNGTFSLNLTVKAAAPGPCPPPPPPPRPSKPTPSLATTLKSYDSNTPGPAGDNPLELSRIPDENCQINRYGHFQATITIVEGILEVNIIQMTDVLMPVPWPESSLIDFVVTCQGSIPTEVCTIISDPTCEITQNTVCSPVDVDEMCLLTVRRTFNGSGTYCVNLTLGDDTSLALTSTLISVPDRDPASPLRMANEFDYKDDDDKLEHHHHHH
# test-details: antigen ELISA
Field: EC50. Provide a value for each of the binders that follow.
Lab book: enter the figure in nM, no units written.

# EC50 of hGPN18-2_H2L3 VL P100A (antibody, V domains shown) VH: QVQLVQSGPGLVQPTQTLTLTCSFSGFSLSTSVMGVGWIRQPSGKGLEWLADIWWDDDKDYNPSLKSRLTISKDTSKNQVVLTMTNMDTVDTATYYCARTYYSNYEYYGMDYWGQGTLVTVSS VL: DIVMTQSPDSLAVSLGERATINCRSSQTIILSNGNTYLEWYQQKPGQPPKLLIYKVSNRFSGVPDRFSGSGSGTDFTLTISSLQAEDVAVYYCFQGSHVAFTFGSGTKLEIKR = 4.22

The recorded EC50 for entry hGPN18-2_H2L3 VL N58A (antibody, V domains shown) VH: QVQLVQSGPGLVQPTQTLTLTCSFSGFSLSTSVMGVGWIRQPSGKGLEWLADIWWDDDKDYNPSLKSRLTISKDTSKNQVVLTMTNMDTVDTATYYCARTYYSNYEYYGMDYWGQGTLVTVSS VL: DIVMTQSPDSLAVSLGERATINCRSSQTIILSNGNTYLEWYQQKPGQPPKLLIYKVSARFSGVPDRFSGSGSGTDFTLTISSLQAEDVAVYYCFQGSHVPFTFGSGTKLEIKR equals 2.86

Documented EC50 of hGPN18-2_H2L3 VL G34A (antibody, V domains shown) VH: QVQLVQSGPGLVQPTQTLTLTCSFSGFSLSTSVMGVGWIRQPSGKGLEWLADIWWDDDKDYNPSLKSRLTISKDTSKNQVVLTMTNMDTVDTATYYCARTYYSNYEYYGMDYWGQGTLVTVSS VL: DIVMTQSPDSLAVSLGERATINCRSSQTIILSNANTYLEWYQQKPGQPPKLLIYKVSNRFSGVPDRFSGSGSGTDFTLTISSLQAEDVAVYYCFQGSHVPFTFGSGTKLEIKR : 3.94

Per the record, hGPN18-2_H2L3 VL T36A (antibody, V domains shown) VH: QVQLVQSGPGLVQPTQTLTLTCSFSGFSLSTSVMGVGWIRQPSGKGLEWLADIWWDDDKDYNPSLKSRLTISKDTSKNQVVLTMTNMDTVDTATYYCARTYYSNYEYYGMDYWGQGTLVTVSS VL: DIVMTQSPDSLAVSLGERATINCRSSQTIILSNGNAYLEWYQQKPGQPPKLLIYKVSNRFSGVPDRFSGSGSGTDFTLTISSLQAEDVAVYYCFQGSHVPFTFGSGTKLEIKR has EC50 of 4.74

According to the records, this binder hGPN18-2_H2L3 VL G96A (antibody, V domains shown) VH: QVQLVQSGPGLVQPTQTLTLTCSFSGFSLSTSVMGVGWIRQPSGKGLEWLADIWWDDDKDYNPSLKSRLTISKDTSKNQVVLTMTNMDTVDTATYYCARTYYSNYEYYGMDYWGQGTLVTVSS VL: DIVMTQSPDSLAVSLGERATINCRSSQTIILSNGNTYLEWYQQKPGQPPKLLIYKVSNRFSGVPDRFSGSGSGTDFTLTISSLQAEDVAVYYCFQASHVPFTFGSGTKLEIKR displays EC50 of 10.8
